Please go through the items and note down their TGI.
System: PC-3 prostate
Assay: NCI tumour cell line growth inhibition, 48 h
Give bare numbers, in µM.

Examples from the recorded data:
1) O=S(=O)(NCCNc1cc(-c2cn(-c3ccccc3)nc2-c2cccc(O)c2)ccn1)c1ccc(Cl)cc1 ... 12
2) O=C(NNS(=O)(=O)c1ccc(F)cc1)c1cccnc1Nc1ccc(Cl)cc1Cl ... 32.1
3) C[S+](C)CC(=O)c1ccc2c(c1)Sc1ccccc1O2 ... 4.03
4) Cc1ccc(NC(=O)c2[nH]c(SCCN(C)C)nc2-c2ccc(F)cc2)cc1C#Cc1cnc2cccnn12 ... 4.89
5) Cc1cccc2c1O/C(=C\c1ccc([N+](=O)[O-])o1)C2=O ... 4.11

--- query ---
Prompt line: Give TGI for CN1CCN(CCNc2ccc(CO)c3sc4ccccc4c(=O)c23)CC1
Response line: 14.5

---

Test system: HL-60(TB) leukemia
Assay: NCI tumour cell line growth inhibition, 48 h; in the data active = GI50 below about 0.43 µM; inactive = the rest
Choose one outcome from this list and give only that: active, inactive

1. CC1SC(c2c(Cl)cccc2Cl)N(NC(=O)C(O)c2ccccc2)C1=O (stereo not given) ... inactive
2. COc1ccc(-c2nnc(N3CCN(C(=O)CN4CCN(c5ccc(Cl)cc5)CC4)CC3)nc2-c2ccc(OC)cc2)cc1 ... inactive
3. N#C/C(N)=C(\C#N)N=Cc1csc2ccccc12 ... inactive
4. N[C@@H]1CCCC[C@@H]1N.O=C([O-])CN(CP(=O)([O-])[O-])CP(=O)([O-])[O-].[Pt+2] ... inactive

We now examine a further compound.
Prompt line: Could you please tell me the result logged for COC(=O)C1(C2CC/C(C)=C/CC/C(C)=C/CC[C@@]3(C)O[C@@H]3C2)CC1 (stereo not given in full) in this assay?
Response line: inactive

---

System: HCT-116 colon
Experiment: NCI tumour cell line growth inhibition, 48 h
attribute_measured: TGI

1) C(=C\c1nccc2c1[nH]c1ccccc12)/c1ccccc1 ... 10.7 µM
2) Cc1n[nH]c(=O)n1/N=C/c1ccncc1 ... > 100 µM
3) CO[C@@]12C[C@H]3[C@@H]([C@@H](O)[C@@H](OC(=O)/C=C/c4ccccc4)[C@@]4(O)C(C)(C)CCC[C@]34C)[C@@H](C)C1=CC(=O)O2 ... > 100 µM
4) COc1cccc(NC(=O)CC(=O)N2N=C(C)C(N=Nc3ccc(S(=O)(=O)CCOS(=O)(=O)O)cc3)C2=O)c1 (stereo not given) ... 13 µM
5) Cc1ccc(NC(=O)C2C(=O)N(c3ccc(C)c(C)c3)C(=O)/C2=N\NC(N)=S)cc1C (stereo not given) ... > 100 µM
6) C[S+](C)CC(=O)c1ccc2c(c1)Sc1ccccc1O2 ... 7.32 µM
7) Cc1nc2ncn3c(c-2c1Cc1ccccc1)NC=C(O)N3 ... > 100 µM
8) C1=CC(=[N+]2N=C(c3ccccc3)CC2c2ccccc2)C=CC1=C1SC(c2ccccc2)(c2ccccc2)c2ccccc21 (stereo not given) ... > 100 µM
9) Cn1nc2ccc3nccc(N(CCO)CCO)c3c2n1 ... > 100 µM

Please find the next compound below.
Prompt line: Give me measured TGI, please, for this compound: COC(=O)C[C@H](COCc1ccccc1)NC(=O)C[C@H](COCc1ccccc1)NC(=O)OC(C)(C)C
Response line: 81.2 µM

---

Tested on: KM20L2 colon
Experiment: NCI tumour cell line growth inhibition, 48 h
attribute_measured: TGI

Below: 5 compounds and their reported TGI.
1. COC(=O)c1ccccc1NC(=O)C(=O)CC(=O)CC(c1ccccc1)c1c(O)c2ccccc2oc1=O (stereo unspecified) ... > 100 µM
2. CC(C(=O)c1ccc(Cl)cc1)C1OC(=O)C(Cl)=C1Cl (stereo unspecified) ... > 100 µM
3. CN(C)CC1(Cc2ccccc2)CCC(Cc2ccccc2)C1=O (stereo unspecified) ... 32.4 µM
4. CCc1cccc(CC)c1NC(=O)C1=C(C)NC(C)=C(C(=O)Nc2c(CC)cccc2CC)C1c1ccc2c(c1)OCO2 ... 30.5 µM
5. COC(=O)CCc1cccnc1/C=N/O ... > 100 µM

We next turn to a different compound, shown below.
Prompt line: Please report TGI for the following compound: BrC1=CC=C2NCCCCCCN=C3C=CC(Br)=CC=C3NCCCCCCN=C2C=C1
Response line: > 25.5 µM

---

Provide the reported TGI of each item.
System: CAKI-1 renal
Assay: NCI tumour cell line growth inhibition, 48 h

1) O=C(O)c1cc(O)c2c(c1)C([C@@H]1c3cccc(O)c3C(=O)c3c(O)cc(C(=O)O)cc31)c1cccc(O)c1C2=O (some centres undefined) ... > 100 µM
2) COc1cc2c(c(OC)c1OC)C(=O)[C@H](Br)[C@H]2NC(=O)NCCCl ... > 100 µM
3) c1cc[c]([Sn]([S]c2cccc3cccnc23)([S]c2cccc3cccnc23)[c]2ccccc2)cc1 ... 0.43 µM

Hey, can you go through the list below and give me TGI for every item?
1. COc1ccc(C(=O)C(C(=O)C(=O)Nc2nccs2)c2ccc(OC)cc2)cc1 (centres undefined)
2. COC(=O)CCc1cccnc1/C=N/O
3. O=C(O)c1cc(Cc2ccc(O)c(C(=O)O)c2)ccc1O (tested in a mixture with another compound)
4. COc1ccc([C@]23CCN(S(=O)(=O)c4ccc(C)cc4)[C@H]2[C@H](CO)C2(CC3)OCC(C)(C)CO2)cc1OC
5. CCCCCCC#CC#Cc1cccc(=O)o1
6. C=CCC(N[C@H](CO)c1ccccc1)c1cn(S(=O)(=O)c2ccc(C)cc2)c2ccccc12 (some centres undefined)
7. COc1cc(C)c(C)c(OC(=O)c2c(C)c(C)c(OC)c(C)c2OC)c1C

Response line:
> 100 µM
> 100 µM
3.69 µM
> 100 µM
9.2 µM
37.3 µM
79.6 µM

For each of the items listed, what is its TGI?
1. COC(=O)NC(=O)c1cn(CCCOC(=O)CCCCCCCCC(=O)OCCCn2cc(C(=O)NC(=O)OC)c(=O)[nH]c2=O)c(=O)[nH]c1=O
2. CCOC(=O)C1=COC(C)(c2ccccc2)CC1=O (centres undefined)
3. CC1SC(c2c(Cl)cccc2Cl)N(NC(=O)C(O)c2ccccc2)C1=O (centres undefined)
4. NC(=S)N1N=C(c2ccccc2O)CC1c1ccccc1 (centres undefined)
5. Nc1ccc(Oc2ccc(C34CC5CC(C3)CC(c3ccc(Oc6ccc(N)cc6)cc3)(C5)C4)cc2)cc1
6. O=[N+]([O-])c1ccc(/C=C(/c2ccc([N+](=O)[O-])o2)S(=O)(=O)c2ccccc2)o1
7. CN(C)CC1(Cc2ccccc2)CCC(Cc2ccccc2)C1=O (centres undefined)

Response line:
> 100 µM
> 100 µM
> 100 µM
> 100 µM
46.3 µM
33 µM
23.3 µM

Batch request: TGI for each of the following molecules.
1. Cc1[nH]nc2c1C(=O)C=C(N(CCO)c1ccccc1)C2=O
2. CCN(CC)Cc1cc(Nc2c3ccccc3nc3c4ccccc4n(C)c23)ccc1O

Response line:
1: > 100 µM; 2: 26 µM

---

Tested on: SF-268 CNS
Experiment: NCI tumour cell line growth inhibition, 48 h
attribute_measured: log10 of TGI (log10 of the value in µM)
// do not treat as linear: log10 of TGI, unit µM

// known answers, use as guide
1) CC(=O)c1ccc2c(c1)N(CCCN1CCN(CCO)CC1)c1ccccc1C2 ... 1.52
2) CN1CCN(c2ccc(NC3=C(Cl)C(=O)c4ncccc4C3=O)cc2C#N)CC1 ... 0.72
3) Cc1cc(C)cc(Nc2ccc([N+](=O)[O-])c(NCCN3CCOCC3)n2)c1 ... 1.93

Provide the reported log10 of TGI of each entry below, same order.
1. NC(=S)N1N=C(c2ccccc2O)CC1c1ccccc1 (stereo unspecified)
2. O=C1/C(=C/c2ccccc2)CCc2ccccc21
3. O=C(Nc1cccc(O)c1)c1cccc(NC2=C(Cl)C(=O)N(Cc3ccccc3)C2=O)c1
4. Cc1cc(=O)oc2c3c(ccc12)OC(c1ccc(Br)cc1)CC3=O (stereo unspecified)
5. COC(CN(C=O)[C@@H](c1ccc(Cl)cc1)c1cc2ccccc2o1)OC
6. O=c1oc2ccccc2c(O)c1C(c1ccc2c(c1)Cc1ccccc1-2)c1c(O)c2ccccc2oc1=O
7. C#C[C@]1(O)CC[C@H]2[C@@H]3CCC4=C/C(=N\OCCN(CC)CC)CC[C@]4(C)[C@H]3CC[C@@]21C
8. C[S+](C)CC(=O)c1ccc2c(c1)Sc1ccccc1O2

Response line:
1.91
1.57
1.73
1.51
1.49
1.84
1.03
1.16

Field: log10 of TGI. Fill in for each record below.
1. CCCCCC(O)(CCCCC)CCCCCCCCC1=C(O)c2[nH]c(=O)ccc2C(=O)C1=O
2. CCCCCCCCCCCC(=O)c1c(O)cccc1O
3. O=[N+]([O-])c1ccc2c(c1)nc(Cc1ccc(Cl)cc1)n2C[C@@H]1CCCN2CCCCC12 (stereo partly specified)
4. O=C(O)c1cc(Cc2ccc(O)c(C(=O)O)c2)ccc1O (tested in a mixture with another compound)
5. O=C(CNc1ncco1)Nc1ccc(S(=O)(=O)c2ccc(NC(=O)CNc3ncco3)cc2)cc1
6. CC(=O)OC1CCC2(C)C(=CCC3C4CCC5(OC6CC(C)CN(C(C)=O)C6C5C)C(C)=C4C(=O)C32)C1 (stereo unspecified)

Response line:
1.28
1.48
0.80
1.42
0.66
1.50
